Biological target: OXA-48 (Klebsiella pneumoniae, UniProt Q6XEC0)
Construct: made in house; host or cells: E. coli BL21(DE3), T7 expression system
Sequence (Q6XEC0 23-265, looked up): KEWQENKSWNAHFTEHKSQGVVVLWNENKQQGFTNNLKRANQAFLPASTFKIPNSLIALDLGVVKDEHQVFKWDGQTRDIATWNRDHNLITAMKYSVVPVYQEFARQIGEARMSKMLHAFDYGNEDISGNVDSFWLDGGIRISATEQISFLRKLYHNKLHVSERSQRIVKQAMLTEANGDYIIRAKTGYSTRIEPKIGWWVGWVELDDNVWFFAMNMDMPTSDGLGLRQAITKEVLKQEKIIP
Assay: OXA-48 primary enzymatic assay (nitrocefin substrate, fluorescence-quenching readout)
Assay type: biochemical
Settings: dose–response, median of triplicate wells; 15 min preincubation, 25 µM nitrocefin
Exercise: for every item that follows, state its recorded AC50.
State the answer as a number, implicitly in µM.

Prompt line: Specify the recorded AC50 for `CCc1ccc(-c2n[nH]c3nc(-c4cc(Cl)c(O)c(OC)c4)cc(C(=O)O)c23)cc1` , system: OXA-48 (Klebsiella pneumoniae, UniProt Q6XEC0).
Response line: 13.7

Prompt line: Specify the recorded AC50 for `CCc1ccc(-c2n[nH]c3nc(-c4cccc(C(=O)O)c4)cc(C(=O)O)c23)cc1` , system: OXA-48 (Klebsiella pneumoniae, UniProt Q6XEC0).
Response line: 16.8

Prompt line: Specify the recorded AC50 for `CCc1ccc(-c2n[nH]c3nc(-c4ccc(C(=O)O)cc4)cc(C(=O)O)c23)cc1` , system: OXA-48 (Klebsiella pneumoniae, UniProt Q6XEC0).
Response line: 0.99

Prompt line: Specify the recorded AC50 for `O=C(O)c1ccc(/C=N/n2c(S)nnc2-c2ccc(Cl)cc2Cl)cc1` , system: OXA-48 (Klebsiella pneumoniae, UniProt Q6XEC0).
Response line: 3.17

Prompt line: Specify the recorded AC50 for `O=C(O)c1ccc(C=Nn2c(S)nnc2-c2ccccc2)cc1` , system: OXA-48 (Klebsiella pneumoniae, UniProt Q6XEC0).
Response line: 1.14
